Here we gather IC50 data for Autotaxin (Homo sapiens, UniProt Q13822) reported by several publications.

Entry `CNC(=O)Nc1cc(Cl)ccc1-c1cc2n(n1)[C@@H](C)CN(Cc1ccc(C#N)cc1)C2=O` ; IC50 = 100 to 1000 nM

Entry CCc1nc2sc(N3CCC(N(C)CC(=O)N4CC(C(=O)O)C4)C3)nn2c1N(C)c1nc(-c2ccc(F)cc2)c(C#N)s1 (stereo not drawn) ; IC50 = 0.01 to 100 nM

Entry `O=C(c1cnc(NCc2cc(OC(F)(F)F)cc(C3CC3)c2)nc1)N1CC(F)C1` ; IC50 = < 100 nM

----------
Here we gather IC50 data for Autotaxin (Homo sapiens, UniProt Q13822) reported by several publications.

Observe how each entry below is paired with its result.
INSERT INTO assay_data (compound, quantity_name, observed_value) VALUES
  ('Cc1c(Sc2cccc(C(=O)O)c2)c2ccc(Cl)c(F)c2n1CC(=O)N1CCCC1=O', 'IC50', '0.5 to 3 µM'),
  ('CCCCC1CN(CC(=O)NCc2ccnc(O)c2)C(=O)c2cc(-c3ccc(Cl)cc3)nn21 (stereo not shown)', 'IC50', '≥ 1 µM'),
  ('Cc1cccc(C(=O)N[C@@H](C(=O)N2CCC3(CC2)C(=O)N(C)CN3c2cccc(Br)c2)C(C)C)c1', 'IC50', '< 0.5 µM'),
  ('Cn1c(COc2cc(Cl)c(C#N)cc2-c2cc(C(=O)N3CCOCC3)ccc2F)n[nH]c1=O', 'IC50', '0.01 µM'),
  ('Cc1c(Sc2cccc(C(=O)O)c2F)c2ccc(Cl)c(F)c2n1CC(=O)N1C[C@H](O)[C@@H](N2CCOCC2)C1', 'IC50', '≤ 0.5 µM'),
  ('COc1ccc(F)c(C(=O)N[C@@H](C(=O)N2CCC3(CC2)C(=O)N(C)CN3c2ccc(C(=O)O)cc2)C(C)C)c1', 'IC50', '< 0.5 µM');

Consider the additional compound presented here.
Entry CCCCC1CN(CC(=O)N2CCO[C@H](C)C2)C(=O)c2cc(-c3ccc(Cl)cc3)nn21 (stereo partly shown) ; IC50 = 0.1 to 1 µM

----------
Here we gather IC50 data for Autotaxin (Homo sapiens) reported by several publications.

INSERT INTO assay_data (compound, system_tested, quantity_name, observed_value) VALUES
  ('CC(C)[C@@H](NC(=O)c1cc(C(F)(F)F)ccc1F)C(=O)N1CCC(C)(Nc2ccc(S(C)(=O)=O)cc2)CC1', 'Autotaxin (Homo sapiens)', 'IC50', '100 to 500 nM'),
  ('COc1ccc(C(CCO)Nc2ccc(C(=O)NCc3cc(F)ccc3F)nn2)cc1 (stereo not shown)', 'Autotaxin (Homo sapiens)', 'IC50', '14 nM'),
  ('CCCn1cc(-n2c(Cl)c(Sc3cccc(C(=O)O)n3)c3ccc(Cl)c(F)c32)cn1', 'Autotaxin (Homo sapiens)', 'IC50', '< 500 nM');

Observed IC50 on Autotaxin (Homo sapiens), entry `O=C(c1cnc(NC2Cc3cc(Br)c(Br)cc3C2)nc1)N1CCC12COC2` , equals 100 to 1000 nM

Observed IC50 on Autotaxin (Homo sapiens), entry `O=C(c1cnc(NCc2cc(OC(F)(F)F)cc(C3CC3)c2)nc1)N1CCC12CN(CC(F)(F)F)C2` , equals < 100 nM

Observed IC50 on Autotaxin (Homo sapiens), entry `O=C(CCc1ccc(OC(F)(F)F)cc1)N1C[C@@H]2CN(C(=O)c3ccc4[nH]nnc4c3)C[C@H]2C1` , equals 6 nM

Observed IC50 on Autotaxin (Homo sapiens), entry CCCC1CCN(C(=O)Cn2c(C)c(Sc3cccc(C(=O)O)c3)c3ccc(Cl)c(F)c32)C1 (stereo not shown) , equals ≤ 500 nM

----------
Here we gather IC50 data for Autotaxin (Homo sapiens, UniProt Q13822) reported by several publications.

Observe how each entry below is paired with its result.
INSERT INTO assay_data (compound, system_tested, quantity_name, observed_value) VALUES
  ('CC(C)CCN1C(=O)N(C)C(=O)C12CCN(C(=O)[C@H](NC(=O)c1cc(C(F)(F)F)ccc1F)C(C)C)CC2', 'Autotaxin (Homo sapiens, UniProt Q13822)', 'IC50', '< 500 nM'),
  ('CC(C)Cc1ccc(F)c(C(=O)N[C@@H](C(=O)N2CCC(C)(Nc3ccc(S(C)(=O)=O)cc3)CC2)C(C)C)c1', 'Autotaxin (Homo sapiens, UniProt Q13822)', 'IC50', '10 to 100 nM'),
  ('O=C(O)c1cccc(Sc2c(C3CC3)n(-c3cccnc3)c3c(F)c(Cl)ccc23)c1F', 'Autotaxin (Homo sapiens, UniProt Q13822)', 'IC50', '< 500 nM');

Entry CC(C)c1cc(CNc2ncc(C(=O)N3CCC3C)cn2)cc(OC(F)(F)F)c1 (single isomer, unassigned) ; IC50 = < 100 nM

Entry `Cc1c(Sc2cccc(C(=O)O)c2)c2ccc(Cl)c(F)c2n1CC(=O)N1CCC2(CC1)CNC(=O)C2` ; IC50 = ≤ 500 nM

Entry `Cc1c(Sc2cccc(C(=O)O)c2)c2ccc(Cl)c(F)c2n1CC(=O)N(C)c1ccccc1` ; IC50 = 500 to 3000 nM

----------
Here we gather pIC50 data for Autotaxin (Homo sapiens, UniProt Q13822) reported by several publications.
pIC50: −log10 of the molar value.

INSERT INTO measurements (molecule, observed_value) VALUES
  ('CCCCCC1CN(CC(=O)NCc2ccccc2C(=O)O)C(=O)c2cc(-c3ccc(Cl)cc3)nn21 (stereo not drawn)', '7.00 to 8.00'),
  ('CC(C)(O)[C@H]1CCN1C(=O)c1cnc(N[C@@H]2Cc3ccc(Cl)cc3C2)nc1', '> 7.00'),
  ('CC(=O)N1CC2(CCN2C(=O)c2cnc(NC3Cc4ccc(Cl)cc4C3)nc2)C1 (stereo not drawn)', '> 7.00'),
  ('Cc1cccc(C(=O)N[C@@H](C(=O)N2CCC(C)(N(C)c3ccccc3)CC2)C(C)C)c1', '5.30 to 6.30'),
  ('CC(C)[C@@H](NC(=O)c1cc(OC(F)F)ccc1F)C(=O)N1CCC2(CC1)C(=O)N(C)CN2c1ccc(C(=O)O)cc1', '> 6.30');

Observed pIC50 on Autotaxin (Homo sapiens, UniProt Q13822), entry `O=C(c1cnc(NC2Cc3ccccc3C2)nc1)N1CCC1` , equals 6.00 to 7.00

Observed pIC50 on Autotaxin (Homo sapiens, UniProt Q13822), entry CCCCC1CN(CC(=O)NC(C#N)Cc2ccccc2)C(=O)c2cc(-c3ccc(Cl)cc3)nn21 (stereo not drawn) , equals 6.00 to 7.00

Observed pIC50 on Autotaxin (Homo sapiens, UniProt Q13822), entry CCCCCC1CN(Cc2ccc(CO)cc2)C(=O)c2cc(-c3ccc(Cl)cc3)nn21 (stereo not drawn) , equals 6.00 to 7.00

Observed pIC50 on Autotaxin (Homo sapiens, UniProt Q13822), entry `CC(C)(O)[C@@H]1CCN1C(=O)c1cnc(N[C@@H]2Cc3ccc(Cl)cc3C2)nc1` , equals > 7.00

----------
Here we gather IC50 data for Autotaxin (Homo sapiens, UniProt Q13822) reported by several publications.

Observe how each entry below is paired with its result.
INSERT INTO measurements (molecule, observed_value) VALUES
  ('C[C@H]1CN(CC(=O)C2CCCCN2C(=O)O)C(=O)c2cc(-c3ccc(Cl)cc3)nn21 (stereo partly shown)', '100 to 1000 nM'),
  ('O=C(Cn1cc(-c2cnc(NC3Cc4ccccc4C3)nc2)c(C2CCNCC2)n1)N1CCc2[nH]nnc2C1', '< 1.56 nM'),
  ('CC(C)c1cc(CNc2cnc(C(=O)N3CCC3)cn2)cc(OC(F)(F)F)c1', '100 to 1000 nM'),
  ('O=C(O)[C@@H]1CCCN(Cc2ccc3c(C(F)(F)F)c(O[C@H]4CC[C@@H](C(F)(F)F)CC4)ccc3c2)C1', '≤ 500 nM'),
  ('O=C(O)c1cccc(Sc2c(Cl)n(CCN3CC4(CCC4)c4ccccc43)c3c(F)c(Cl)ccc23)c1F', '≤ 500 nM');

Observed IC50 on Autotaxin (Homo sapiens, UniProt Q13822), entry `O=C(c1cnc(NCc2cc(OC(F)(F)F)cc(C3CC3)c2)nc1)N1CCC12CCC2` , equals < 100 nM

Observed IC50 on Autotaxin (Homo sapiens, UniProt Q13822), entry `Cc1c(Sc2cccc(C(=O)O)c2F)c2ccc(Cl)c(F)c2n1CC(=O)N1CC2(CC2)c2cc(F)ccc21` , equals ≤ 500 nM

----------
Here we gather IC50 data for Autotaxin (Homo sapiens, UniProt Q13822) reported by several publications.

INSERT INTO assay_data (compound, system_tested, quantity_name, observed_value) VALUES
  ('CCCCCC1CN(CCO)C(=O)c2cc(-c3ccc(Cl)cc3)nn21 (stereo not drawn)', 'Autotaxin (Homo sapiens, UniProt Q13822)', 'IC50', '100 to 1000 nM'),
  ('O=C(c1cnc(NCc2cc(OC(F)(F)F)cc(C3CC3)c2)nc1)N1CCc2cnccc21', 'Autotaxin (Homo sapiens, UniProt Q13822)', 'IC50', '100 to 1000 nM'),
  ('CCc1ccc(F)c(C(=O)N[C@@H](C(=O)N2CCC(C#N)(Nc3ccc(S(C)(=O)=O)cc3)CC2)C(C)C)c1', 'Autotaxin (Homo sapiens, UniProt Q13822)', 'IC50', '500 to 5000 nM'),
  ('O=C(O)C1CC12CN(Cc1ccc3c(C(F)(F)F)c(O[C@H]4CC[C@@H](C(F)(F)F)CC4)ccc3c1)C2 (relative stereo)', 'Autotaxin (Homo sapiens, UniProt Q13822)', 'IC50', '≤ 250 nM'),
  ('CC(C)[C@@H](NC(=O)c1cc(C2CC2)ccc1F)C(=O)N1CCC(C)(Nc2ccc(S(C)(=O)=O)cc2)CC1', 'Autotaxin (Homo sapiens, UniProt Q13822)', 'IC50', '100 to 500 nM');

Consider the additional compound presented here.
Observed IC50 on Autotaxin (Homo sapiens, UniProt Q13822), entry CCCCCC1CN(CC(=O)N2CCC(C(=O)OCC)CC2)C(=O)c2cc(-c3ccc(Cl)cc3)nn21 (stereo not drawn) , equals 10 to 100 nM
